Data origin, for the record: patent US10550097B2

Recorded Increase versus cortisone (#2), one value per entry.
# Test system: Human skin from abdominal plastic surgery
# PROCEDURE_DETAILS: Ex vivo: total dermal collagen after cortisone and cortisone/inhibitor treatment
# Format: cell-based
# EXPERIMENTAL_PARAMETERS: 10 μM in DMSO, day 6

{"SAMPLE_SMILES": "Cc1ccc(-c2cccc(C(=O)N3CCC(C)CC3)c2)cn1", "RECORDED_METRIC": "Increase versus cortisone (#2)", "VALUE_MEASURED": "+22%"}
{"SAMPLE_SMILES": "O=C(c1cccc(-c2ccccc2)c1)N1CCCCCC1", "RECORDED_METRIC": "Increase versus cortisone (#2)", "VALUE_MEASURED": "+34%"}
{"SAMPLE_SMILES": "Cc1ccc(-c2cccc(C(=O)N3CCCCCC3)c2)cn1", "RECORDED_METRIC": "Increase versus cortisone (#2)", "VALUE_MEASURED": "+34%"}

Note: attention shifts to another entry.
Test item `Cc1ccc(-c2cccc(C(=O)N3CCCCCC3)c2)cc1F` ; Human skin from abdominal plastic surgery; reported Increase versus cortisone (#2) was +25%

====

The entries below are paired with their reported remaining activity at 0.1 µM.
# TARGET_SYSTEM: 11β-HSD1 (Homo sapiens, UniProt P28845)
# Sequence (P28845 whole entry): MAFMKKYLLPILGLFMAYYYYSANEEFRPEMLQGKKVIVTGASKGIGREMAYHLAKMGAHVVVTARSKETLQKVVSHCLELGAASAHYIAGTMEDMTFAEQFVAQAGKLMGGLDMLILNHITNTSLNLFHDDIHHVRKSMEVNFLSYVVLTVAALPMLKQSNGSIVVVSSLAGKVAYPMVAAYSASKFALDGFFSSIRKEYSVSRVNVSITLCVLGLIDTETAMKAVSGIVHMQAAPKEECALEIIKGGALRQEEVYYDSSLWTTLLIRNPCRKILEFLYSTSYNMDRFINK
# PROCEDURE_DETAILS: Human keratinocytes assay: 11β-HSD1 activity (cortisone to cortisol)
# Type: cell-based
# EXPERIMENTAL_PARAMETERS: 48 h
Write down the numeric answer in % and omit the unit.

Field: example entries. Status: answers known.
{"SAMPLE_SMILES": "Cc1ccc(-c2cccc(C(=O)N3CCOC(C)(C)C3)c2)cc1F", "TARGET_SYSTEM": "11β-HSD1 (Homo sapiens, UniProt P28845)", "VALUE_MEASURED": 0}
{"SAMPLE_SMILES": "O=C(c1cccc(-c2ccccc2)c1)N1CCCCCC1", "TARGET_SYSTEM": "11β-HSD1 (Homo sapiens, UniProt P28845)", "VALUE_MEASURED": 10}
{"SAMPLE_SMILES": "Cc1ccc(-c2cccc(C(=O)N3CCCCCC3)c2)cc1", "TARGET_SYSTEM": "11β-HSD1 (Homo sapiens, UniProt P28845)", "VALUE_MEASURED": 3}
{"SAMPLE_SMILES": "Cc1ccc(-c2cccc(C(=O)N3CCCCCC3)c2)cc1F", "TARGET_SYSTEM": "11β-HSD1 (Homo sapiens, UniProt P28845)", "VALUE_MEASURED": 2}

Query compound follows.
Note to self: remaining activity at 0.1 µM recorded for `CC1CCN(C(=O)c2cccc(-c3ccccc3Cl)c2)CC1` was 4

====

# PROCEDURE_DETAILS: Solubility in cosmetic oils from saturated mixtures (UPLC)
# Assay type: physicochemical
# EXPERIMENTAL_PARAMETERS: Cetiol B (dibutyl adipate), 7 days at room temperature (22° C.)
# key: entry, value: Solubility in cosmetic oils: Cetiol B
Kindly provide the numeric value in % only, without the unit symbol.

Entry Cc1ccc(-c2cccc(C(=O)N3CC(C)OC(C)C3)c2)cc1F (centres unmarked) ; Solubility in cosmetic oils: Cetiol B = 10.0

Solubility in cosmetic oils: Cetiol B reading for `Cc1ccc(-c2cccc(C(=O)N3CCCCCC3)c2)cc1` : 3.3

Measured Solubility in cosmetic oils: Cetiol B, `CC1CCN(C(=O)c2cccc(-c3cccc(C(N)=O)c3)c2)CC1` : 3.0

====

Entries and their Increase versus cortisone (#2) values follow.
# Test system: Human skin from abdominal plastic surgery
# PROCEDURE_DETAILS: Ex vivo: total dermal collagen after cortisone and cortisone/inhibitor treatment
# Type: cell-based
# EXPERIMENTAL_PARAMETERS: 100 μM in DMSO, day 6
# Description: Human skin from abdominal plastic surgery was used. The skin samples were cut in pieces of ˜8×3 mm (ø×thickness) and cultured up to day 6 in an air-liquid interface in a perforated ring of stainless steel in contact with a culture medium (modified Williams' E medium), while renewing the culture medium on day 3. Six skin specimens were used for each test sample. […]

{"SAMPLE_SMILES": "O=C(c1cccc(-c2ccccc2)c1)N1CCCCCC1", "Increase versus cortisone (#2)": "+34%"}

Record `Cc1ccc(-c2cccc(C(=O)N3CCC(C)CC3)c2)cn1` , field Increase versus cortisone (#2): +40%

For reference, reported Increase versus cortisone (#2) for `Cc1ccc(-c2cccc(C(=O)N3CCCCCC3)c2)cn1` stands at +31%

Reported Increase versus cortisone (#2) for `Cc1ccc(-c2cccc(C(=O)N3CCCCCC3)c2)cc1F` was +26%
